Tested on: decerebrate rigidity induced by radio frequency lesions of rat brains
Assay: Decerebrate rigidity remission action (radio frequency lesion, method of Ono et al)
Assay type: in vivo, Wistar male rat
Details: iv, intravenously administered at 3 mg/kg, tension before the administration = 100%
Where a name gives a salt, the structure may show the parent alone.
Measured inhibition in vivo at 3 mg/kg by item
Please give a number only; it is taken to be in %.

Some entries whose results are on file:
For the compound CC(CN1CCCCC1)C(=O)c1cc(C(=O)c2ccccc2)no1.Cl (centres unmarked) [Example 22, hydrochloride] , what inhibition in vivo at 3 mg/kg is on record? 41

Input CC(CN1CCCC1)C(=O)c1cc(-c2ccccc2)no1 (centres unmarked) [Example 5] 40

---
For the compound CC(C)C(CN1CCCC1)C(=O)c1cc(-c2ccccc2)no1 (centres unmarked) [Example 46, hydrochloride] , what inhibition in vivo at 3 mg/kg is on record? 51

Input CC(CN1CCCCC1)C(=O)c1cc(-c2ccccc2)no1.Cl (centres unmarked) [Example 1, Hydrochloride] 40

Input Cc1ccc(-c2cc(C(=O)C(C)CN3CCCC3)on2)o1 (centres unmarked) [Example 20, hydrochloride] 49

---

Measured ED50 at 20 min by item
Assay: Central depressant action (spontaneous behavior, revolutionary wheel)
Set-up: species or system ddy Male mice
Settings: mouse, in vivo, ip; intraperitoneal administration; dose reducing the number of wheel revolutions in 20 minutes by 50%; read-out: Central depressant action ED₅₀
Where a name gives a salt, the structure may show the parent alone.
Please give a number only; it is taken to be in mg/kg.

For the compound CC(CN1CCCCC1)C(=O)c1cc(-c2ccccc2)no1.Cl (stereo not drawn) , what ED50 at 20 min is on record? 54

Input CCc1ccc(C(=O)C(C)CN2CCCCC2)cc1 (stereo not drawn) [Eperisone hydrochloride, eperisone hydrochloride, reference compound] 33

---
For the compound Cc1ccc(-c2cc(C(=O)C(C)CN3CCCC3)on2)o1 (stereo not drawn) [Example 20, hydrochloride] , what ED50 at 20 min is on record? 49

---

Test system: flexor reflex of the right anterior tibialis
Assay: Depressing action for the spinal reflex of cat (flexor reflex)
Type: in vivo, cats
Conditions: Felis catus, iv; intravenously administered at 3 mg/kg; contraction force before the administration = 100%; read-out: Reflex inhibition, %
Structures can show the parent of a compound that is named as a salt.
attribute_measured: inhibition in vivo at 3 mg/kg (%)
Please give a number only; it is taken to be in %.

Some entries whose results are on file:
For the molecule CCC(CN1CCCC1)C(=O)c1cc(-c2ccccc2)no1 (stereo not shown) [Example 28, hydrochloride] , what inhibition in vivo at 3 mg/kg is on record? 79

Input CCc1ccc(C(=O)C(C)CN2CCCCC2)cc1 (stereo not shown) [Eperisone hydrochloride, eperisone hydrochloride, reference compound] 50

Input Cc1ccc(-c2cc(C(=O)C(C)CN3CCCC3)on2)o1 (stereo not shown) [Example 20, hydrochloride] 54

Next, consider the following molecule.
For the molecule CCC(CN1CCCC1)C(=O)c1cc(-c2ccc(C)o2)no1 (stereo not shown) , what inhibition in vivo at 3 mg/kg is on record? 38
